Measured IC50 by item
target: HpHtrA (Helicobacter pylori, UniProt G2J5T2); construct: (HpHtrA, G18-K475, UniProt G2J5T2); GST (N, cleaved yes); made in house; host or cells: E. coli BL21; experiment: FRET peptide assay of HpHtrA activity; type: biochemical; details: after 180 min; 5 µM FRET peptide, 250 nM HpHtrA, 37 °C, 50 mM HEPES pH 7.4; read-out: IC50 of HpHtrA inhibition

# SMILES_INPUT, IC50, nM
records = [
    ("[Cu+2]", 937),
    ("[Zn+2]", 2570),
]

###

Target: HpHtrA (Helicobacter pylori, UniProt G2J5T2)
Construct: (HpHtrA, G18-K475, UniProt G2J5T2); GST (N, cleaved yes); made in house; host or cells: E. coli BL21
Test: in vitro casein cleavage by HpHtrA (Coomassie SDS-PAGE)
Assay type: biochemical
Details: 1 mM; 10 µg casein, 250 ng HpHtrA, 16 h, 37 °C
Description: The proteins were separated by SDS-PAGE and visualized by staining with Coomassie Brilliant Blue G250 (Lactan, Vienna, Austria). […] Proteins were separated using SDS-PAGE and blotted onto a nitrocellulose membrane. Human Cdh1 was detected by an antibody recognizing the EC5 domain of hCdh1 (Abcam, Cambridge, UK) and a polyclonal serum was used to detect HpHtrA[22]. Independent experiments were repeated at least three times.
MEASUREMENT_LABEL: effect on HtrA-mediated casein degradation

# COMPOUND, STUDY_TARGET, RESULT
data = [
    ("O=C(O)CN(CCOCCOCCN(CC(=O)O)CC(=O)O)CC(=O)O [EGTA, reference compound]", "HpHtrA (Helicobacter pylori, UniProt G2J5T2)", "did not alter"),
    ("[Zn+2]", "HpHtrA (Helicobacter pylori, UniProt G2J5T2)", "strongly inhibited"),
    ("O=C(O)CN(CCN(CC(=O)O)CC(=O)O)CC(=O)O [EDTA, ethylenediaminetetraacetic acid, reference compound]", "HpHtrA (Helicobacter pylori, UniProt G2J5T2)", "did not alter"),
    ("[Cu+2]", "HpHtrA (Helicobacter pylori, UniProt G2J5T2)", "strongly inhibited"),
]

###

target: HpHtrA (Helicobacter pylori, UniProt G2J5T2); construct: (HpHtrA, G18-K475, UniProt G2J5T2); GST (N, cleaved yes); made in house; host or cells: E. coli BL21; assay: in vitro E-cadherin (hCdh1) cleavage by HpHtrA (Western blot); type: biochemical; details: 1 mM; 50 ng hCdh1, 250 ng HpHtrA, 16 h, 37 °C
MEASUREMENT_LABEL: effect on HpHtrA-mediated hCdh1 cleavage/fragmentation

# COMPOUND, STUDY_TARGET, RESULT
measured = [
    ("[Zn+2]", "HpHtrA (Helicobacter pylori, UniProt G2J5T2)", "strongly decreased"),
    ("O=C(O)CN(CCN(CC(=O)O)CC(=O)O)CC(=O)O [EDTA, ethylenediaminetetraacetic acid, reference compound]", "HpHtrA (Helicobacter pylori, UniProt G2J5T2)", "considerably enhanced"),
    ("[Cu+2]", "HpHtrA (Helicobacter pylori, UniProt G2J5T2)", "strongly decreased"),
    ("O=C(O)CN(CCOCCOCCN(CC(=O)O)CC(=O)O)CC(=O)O [EGTA, reference compound]", "HpHtrA (Helicobacter pylori, UniProt G2J5T2)", "considerably enhanced"),
]

###

Measured IC50 by item
Molecular target: HpHtrA (Helicobacter pylori, UniProt G2J5T2)
Construct: (HpHtrA, G18-K475, UniProt G2J5T2); GST (N, cleaved yes); made in house; host or cells: E. coli BL21
Experiment: FRET peptide assay of HpHtrA activity
Assay type: biochemical
Conditions: after 15 min; 5 µM FRET peptide, 250 nM HpHtrA, 37 °C, 50 mM HEPES pH 7.4; read-out: IC50 of HpHtrA inhibition
Protocol: For the establishment of a FRET-based assay for the quantification of the HpHtrA activity, the 2-Abz/3-nitrotyrosine FRET pair[53]–[55] was introduced into the sequence AQRVAF: the fluorophore (2-Abz, Ex/Em 320/435 nm) was coupled at the N-terminus, whereas the quencher (3-nitrotyrosine, Ex 425 nm[56]) was positioned at the C-end. […] Three independent experiments containing three technical replicates were analyzed for every sample. […]
MEASUREMENT_LABEL: IC50

# COMPOUND, RESULT
rows = [
    ("[Cu+2] [Cu^++, CuCl2]", "295 nM"),
    ("[Zn+2] [Zn^++, ZnCl2]", "650 nM"),
]

###

Biological target: UniProtKB G2J5T2
Sequence (G2J5T2 18-475): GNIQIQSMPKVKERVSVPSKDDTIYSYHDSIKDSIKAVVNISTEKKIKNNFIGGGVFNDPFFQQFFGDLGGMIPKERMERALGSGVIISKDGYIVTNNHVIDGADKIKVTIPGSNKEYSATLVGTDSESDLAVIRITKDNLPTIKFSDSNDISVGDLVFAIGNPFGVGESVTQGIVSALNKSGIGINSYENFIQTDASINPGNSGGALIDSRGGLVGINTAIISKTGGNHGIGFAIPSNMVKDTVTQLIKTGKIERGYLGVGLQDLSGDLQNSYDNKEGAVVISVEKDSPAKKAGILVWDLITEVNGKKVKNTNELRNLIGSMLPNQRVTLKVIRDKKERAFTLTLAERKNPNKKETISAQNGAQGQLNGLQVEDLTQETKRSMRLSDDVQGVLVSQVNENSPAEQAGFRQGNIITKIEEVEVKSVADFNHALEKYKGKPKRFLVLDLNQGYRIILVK
pKd: −log10 of the molar value.

# SMILES_INPUT, STUDY_TARGET, pKd
rows = [
    ("[Zn+2]", "UniProtKB G2J5T2", 4.64),
]

Origin of values: paper PMC7324608
